# ASSAY_DETAILS: Tmax in cynomolgus monkey at 1 mg/kg, po measured after 24 or 72 hrs
# Format: ADME, organism-based, Macaca fascicularis
# SETUP_CONDITIONS: in vivo
MEASURE: Tmax (h)
Field format: number, assumed h, no unit text.

Example entries and their recorded answers appear below.
SMILES_ENTRY | MEASURE | READOUT_VALUE
Cc1ncncc1-c1nc2cc(F)c(F)cc2n1C1CC1 | Tmax | 0.5
N#Cc1ccc2nc(-c3cncnc3C(F)F)n(C3CC3)c2c1 | Tmax | 2
Fc1cc2nc(-c3cncnc3C(F)(F)F)n(C3CC3)c2cc1F | Tmax | 2
N#Cc1ccc2nc(-c3cncnc3C(F)(F)F)n(C3CC3)c2n1 | Tmax | 0.5

Tmax in this record for `N#Cc1ccc2nc(-c3cncnc3C(F)F)n(C3CC3)c2n1` : 2

Tmax in this record for `Fc1cc2nc(-c3cncnc3C(F)F)n(C3CC3)c2cc1F` : 1
